target: sGC α1/β1 heterodimer (Homo sapiens, UniProt Q02108+Q02153); experiment: Cell-based sGC functional assay (CASA assay): cGMP generation in CHO-K1/sGC cells, HTRF detection; conditions: inflection point (IP) of cGMP generation in CHO-K1/sGC cells, 4P fit; activity expressed as percentage of Compound A
Sequence (Q02108 whole entry): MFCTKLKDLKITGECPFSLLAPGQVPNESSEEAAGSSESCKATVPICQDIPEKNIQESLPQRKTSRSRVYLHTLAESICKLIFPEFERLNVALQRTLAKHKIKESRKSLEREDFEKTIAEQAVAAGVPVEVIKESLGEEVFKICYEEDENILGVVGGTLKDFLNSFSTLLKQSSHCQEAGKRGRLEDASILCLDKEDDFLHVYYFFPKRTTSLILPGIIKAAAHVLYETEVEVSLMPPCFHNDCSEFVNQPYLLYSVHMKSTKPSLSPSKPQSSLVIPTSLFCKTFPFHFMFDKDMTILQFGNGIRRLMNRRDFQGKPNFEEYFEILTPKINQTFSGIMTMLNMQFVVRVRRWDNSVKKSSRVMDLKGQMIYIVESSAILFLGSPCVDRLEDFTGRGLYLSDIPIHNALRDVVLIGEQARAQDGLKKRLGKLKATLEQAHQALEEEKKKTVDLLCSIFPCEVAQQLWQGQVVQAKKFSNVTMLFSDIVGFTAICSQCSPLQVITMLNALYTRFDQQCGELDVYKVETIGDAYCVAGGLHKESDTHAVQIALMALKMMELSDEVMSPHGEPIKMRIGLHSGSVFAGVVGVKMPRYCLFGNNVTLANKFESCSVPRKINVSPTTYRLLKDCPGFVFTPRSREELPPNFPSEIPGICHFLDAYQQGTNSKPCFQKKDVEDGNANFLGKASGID
Sequence (Q02153 whole entry): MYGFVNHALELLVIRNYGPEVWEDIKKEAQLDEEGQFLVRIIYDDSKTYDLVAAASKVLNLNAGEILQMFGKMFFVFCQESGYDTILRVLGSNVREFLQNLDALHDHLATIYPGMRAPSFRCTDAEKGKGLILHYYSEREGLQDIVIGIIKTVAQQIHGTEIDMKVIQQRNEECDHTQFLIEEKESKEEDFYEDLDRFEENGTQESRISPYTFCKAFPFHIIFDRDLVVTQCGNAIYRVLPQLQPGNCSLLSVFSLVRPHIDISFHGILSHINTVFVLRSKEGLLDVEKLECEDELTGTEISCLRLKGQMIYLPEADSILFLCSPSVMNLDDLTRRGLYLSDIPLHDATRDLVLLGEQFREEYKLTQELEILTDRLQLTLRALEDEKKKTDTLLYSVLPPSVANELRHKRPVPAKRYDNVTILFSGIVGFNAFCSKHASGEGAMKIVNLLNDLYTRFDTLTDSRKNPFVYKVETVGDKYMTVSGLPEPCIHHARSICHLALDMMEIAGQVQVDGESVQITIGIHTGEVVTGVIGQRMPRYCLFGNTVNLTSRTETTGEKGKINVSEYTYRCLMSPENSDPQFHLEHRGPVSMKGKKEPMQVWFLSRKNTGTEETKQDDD
Endpoint: EC50 (µM)

In the examples that follow, each entry is paired with its recorded EC50.
Cc1cc(F)cnc1C1(C2CC2)C(=O)Nc2nc(-c3cn4ccnc4c(CCC(F)(F)C(F)(F)F)n3)nc(N)c21 (single isomer, unassigned) [Example 375B] :: 0.931
CC1(c2ncccn2)C(=O)Nc2nc(-c3cn4ccnc4c(CCC(F)(F)C(F)(F)F)n3)nc(N)c21 (stereo not drawn) [Example 220B] :: 0.409
CC1(c2cc(F)cc(F)c2)C(=O)Nc2nc(-c3cn4ccnc4c(CCC(F)(F)F)n3)nc(N)c21 (stereo not drawn) [Example 195B] :: 0.312
Nc1nc(-c2cn3ccnc3c(CCC(F)(F)C(F)(F)F)n2)nc2c1C(c1ccc(F)cc1)(C1CC1)C(=O)N2 (stereo not drawn) [Example 233B] :: 0.043
CCCCc1nc(-c2nc(N)c3c(n2)NC(=O)C3(c2ncc(Cl)cn2)C2CC2)cn2ccnc12 (stereo not drawn) [Example 372A] :: 0.239

I: COCCNc1nc(-c2cn3ccnc3c(CCC(F)(F)C(F)(F)F)n2)nc2c1C(C)(c1ccc(F)cn1)C(=O)N2 (stereo not drawn) [Example 293B]
II: CC1(c2nnc(C3CC3)o2)C(=O)Nc2nc(-c3cn4ccnc4c(Cc4ccc(F)cc4)n3)nc(N)c21 (stereo not drawn) [Example 34A]
III: Nc1nc(-c2cn3cc(C(F)(F)F)nc3c(Cc3ccc(F)cc3)n2)nc2c1C(C(=O)NC1CC1)(C1CC1)C(=O)N2 (stereo not drawn) [Example 50B]
IV: CCC1(C2CC2)C(=O)Nc2nc(-c3cn4ccnc4c(Cc4ccccc4)n3)nc(N)c21 (single isomer, unassigned) [Example 77A]
// smallest EC50 at index 0, largest at the end Output spec: a listing of the labels in the requested order.
IV, II, I, III
